Test system: Escherichia coli TOP10;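 note: peptides expressed intracellularly from a pBAD plasmid library in pooled LB shake-flask culture, induced with 0.3% L-arabinose, DNA abundance read by NGS, three biological replicates, DESeq2 with apeglm shrinkage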
Test: shrunken log2 fold change of peptide-encoding DNA abundance (4.5 h post-induction vs induction); higher = less antimicrobial activity (less host growth inhibition)
Details: time post-induction: 4.5 h; library: site-saturation at positions 5, 18, 19, 20
Metric Name: shrunken log2 fold change

Guide cases for shrunken log2 fold change, answers given:
Primary Sequence	shrunken log2 fold change
RRIRFRPPRLPRPRPRPHHIPRP	-0.822
RRIRVRPPRLPRPRPRPFLKPRP	-0.602
RRIRPRPPRLPRPRPRPWNGPRP	0.0165
RRIRNRPPRLPRPRPRPDMFPRP	-0.00166
RRIRQRPPRLPRPRPRPALPPRP	0.397
RRIRCRPPRLPRPRPRPNHTPRP	-0.536

**Q:** Look up shrunken log2 fold change for this sequence: RRIRIRPPRLPRPRPRPPVPPRP
**A:** 0.233

**Q:** Quick one: shrunken log2 fold change of RRIRERPPRLPRPRPRPSKNPRP ?
**A:** -0.895

**Q:** Data request, read-out shrunken log2 fold change, for RRIRFRPPRLPRPRPRPVKKPRP
**A:** 0.166

**Q:** shrunken log2 fold change lookup needed for RRIRLRPPRLPRPRPRPCYMPRP , thanks.
**A:** -0.308

**Q:** Fill in: shrunken log2 fold change of RRIRVRPPRLPRPRPRPFYCPRP is ___
**A:** -0.605
